Assignment: determine reported QRS complex for the given compounds.
- System: normal ECG in rats
- test.details: Effect on a normal electrocardiogram in rats
- Type: in vivo, rat
- setup.conditions: 5 mg/kg iv, 0 min (prior to administration); mean ± SD; in ms (unit assumed)
API doc: respond with a numeric literal and nothing else, no unit.

Q. Hi! What's the reported QRS complex for COc1ccccc1N1CCN(Cc2cccc(COc3ccccc3C(N)=O)c2)CC1.Cl [JJGW11] on normal ECG in rats?
A. 38.5

Q. Then Cl.NC(=O)c1ccccc1OCCCCN1CCN(c2cccc(Cl)c2)CC1 [JJGW01] ?
A. 49.3

Q. # repeat for COc1ccccc1N1CCN(CCCCOc2ccccc2C(N)=O)CC1.Cl [JJGW07]
A. 47.0

Q. Please give the result for Cl.NC(=O)c1ccccc1OCCCCCCN1CCN(c2cccc(Cl)c2)CC1 [JJGW03] too.
A. 39.6

Q. What about this compound? COc1ccccc1N1CCN(Cc2ccc(COc3ccccc3C(N)=O)cc2)CC1.Cl [JJGW12]
A. 41.9

Q. Item: Cl.NC(=O)c1ccccc1OCCCCCN1CCN(c2cccc(Cl)c2)CC1 [JJGW02]
A. 36.0

* * *

- Tested on: calcium chloride-induced arrhythmia model in rats
- test.details: Prophylactic antiarrhythmic activity in calcium chloride-induced arrhythmia
- Type: in vivo, rat
- setup.conditions: 5 mg/kg iv 15 min before calcium chloride 140 mg/kg; number of animals with event
- Protocol: The animals were anesthetized with thiopental (75 mg/kg ip). Depending on the model, either adrenaline, aconitine, or calcium chloride was used as an arrhythmogen. Adrenaline and aconitine were administered iv at a dose of 20 µg/kg, whereas calcium chloride was administered at a dose of 140 mg/kg to induce heart rhythm disturbances. The tested compounds were injected iv 15 min before the arrhythmogen. […] The ED50 was calculated using the method of Litchfield and Wilcoxon.
recorded.metric: Fibrillations

Q. Given the entry `COc1ccccc1N1CCN(Cc2cccc(COc3ccccc3C(N)=O)c2)CC1.Cl` , report its measured Fibrillations.
A. 6/6

Q. Check `COc1ccccc1N1CCN(Cc2ccc(COc3ccccc3C(N)=O)cc2)CC1.Cl` too.
A. 4/6

Q. Likewise for `Cl.NC(=O)c1ccccc1OCCCCN1CCN(c2cccc(Cl)c2)CC1` ?
A. 6/6

Q. How about this compound: `Cl.NC(=O)c1ccccc1OCCCCCCN1CCN(c2cccc(Cl)c2)CC1`
A. 4/6

Q. Quick one: `Cl.NC(=O)c1ccccc1OCCCCCN1CCN(c2cccc(Cl)c2)CC1`
A. 4/6

Q. Okay, and `COc1ccccc1N1CCN(CCCCOc2ccccc2C(N)=O)CC1.Cl` ?
A. 6/6

* * *

What Extrasystoles was measured for each of the following?
- Tested on: adrenaline-induced arrhythmia model in rats
- test.details: Prophylactic antiarrhythmic activity in adrenaline-induced arrhythmia
- Format: in vivo, rat
- setup.conditions: 0.25 mg/kg iv 15 min before adrenaline 20 μg/kg; number of animals with event

Q. Give the measured Extrasystoles of `COc1ccccc1N1CCN(Cc2cccc(COc3ccccc3C(N)=O)c2)CC1.Cl` .
A. 6/6

Q. What about `Cl.NC(=O)c1ccccc1OCCCCCCN1CCN(c2cccc(Cl)c2)CC1` ?
A. 5/5

Q. // next record `Cl.NC(=O)c1ccccc1OCCCCN1CCN(c2cccc(Cl)c2)CC1`
A. 4/6

Q. And the next one, `COc1ccccc1N1CCN(Cc2ccc(COc3ccccc3C(N)=O)cc2)CC1.Cl` ?
A. 6/6

Q. Next compound up: `Cl.NC(=O)c1ccccc1OCCCCCN1CCN(c2cccc(Cl)c2)CC1`
A. 5/6

* * *

Please go through the items and note down their Fibrillations.
- System: aconitine-induced arrhythmia model in rats
- test.details: Prophylactic antiarrhythmic activity in aconitine-induced arrhythmia
- Assay type: in vivo, rat
- setup.conditions: 5 mg/kg iv 15 min before aconitine 20 μg/kg; number of animals with event

Q. So what does the record say about Fibrillations for COc1ccccc1N1CCN(Cc2cccc(COc3ccccc3C(N)=O)c2)CC1.Cl [JJGW11] ?
A. 4/6

Q. Queued: Cl.NC(=O)c1ccccc1OCCCCN1CCN(c2cccc(Cl)c2)CC1 [JJGW01]
A. 6/6

Q. Then COc1ccccc1N1CCN(Cc2ccc(COc3ccccc3C(N)=O)cc2)CC1.Cl [JJGW12] ?
A. 5/6

Q. Item: COc1ccccc1N1CCN(CCCCOc2ccccc2C(N)=O)CC1.Cl [JJGW07]
A. 6/6

Q. Continue with Cl.NC(=O)c1ccccc1OCCCCCN1CCN(c2cccc(Cl)c2)CC1 [JJGW02]
A. 6/6

Q. # iterate: Cl.NC(=O)c1ccccc1OCCCCCCN1CCN(c2cccc(Cl)c2)CC1 [JJGW03]
A. 6/6

* * *

- System: normal ECG in rats
- test.details: Effect on a normal electrocardiogram in rats
- Assay type: in vivo, rat
- setup.conditions: 5 mg/kg iv, 15 min; mean ± SD
So basically: HR—heart rate at 300 or higher? That is 1 (yes). Lower than 300? That is 0 (no).

Q. Is HR—heart rate at least 300? Consider `COc1ccccc1N1CCN(CCCCOc2ccccc2C(N)=O)CC1.Cl`
A. 1 (yes)

Q. Can you handle `COc1ccccc1N1CCN(Cc2cccc(COc3ccccc3C(N)=O)c2)CC1.Cl` next?
A. 0 (no)

Q. Now try `COc1ccccc1N1CCN(Cc2ccc(COc3ccccc3C(N)=O)cc2)CC1.Cl` .
A. 0 (no)

Q. And what about the compound `Cl.NC(=O)c1ccccc1OCCCCN1CCN(c2cccc(Cl)c2)CC1` ?
A. 1 (yes)

Q. Same lookup for `Cl.NC(=O)c1ccccc1OCCCCCN1CCN(c2cccc(Cl)c2)CC1` , please.
A. 0 (no)

Q. Try `Cl.NC(=O)c1ccccc1OCCCCCCN1CCN(c2cccc(Cl)c2)CC1` next.
A. 0 (no)

* * *

- Test system: normotensive rats
- test.details: Influence on blood pressure in the normotensive rats
- Assay type: in vivo, rat
- setup.conditions: 2.5 mg/kg iv, 60 min; mean ± SD
recorded.metric: SBP—systolic blood pressure (mmHg)
Kindly provide the numeric value in mmHg only, without the unit symbol.

Q. Would you kindly share the measured SBP—systolic blood pressure for `Cl.NC(=O)c1ccccc1OCCCCCCN1CCN(c2cccc(Cl)c2)CC1` ?
A. 109.2

Q. Can you handle `COc1ccccc1N1CCN(Cc2ccc(COc3ccccc3C(N)=O)cc2)CC1.Cl` next?
A. 110.5

* * *

- target: α1-adrenergic receptors
- test.details: α1-adrenoceptor radioligand binding assay ([3H]-prazosin, rat cortex)
- setup.conditions: rat cortex tissue, mean ± SEM
For each entry below, report its Adrenergic Receptors—pKi α1 value.
// no unit, no text: just the number

Q. Need Adrenergic Receptors—pKi α1 of `Cl.NC(=O)c1ccccc1OCCCCN1CCN(c2cccc(Cl)c2)CC1` , thanks.
A. 8.40

Q. Please do the same for `COc1ccccc1N1CCN(Cc2cccc(COc3ccccc3C(N)=O)c2)CC1.Cl` as well.
A. 8.07

Q. Thanks! And Cc1ccc(N(CC2=NCCN2)c2cccc(O)c2)cc1 [Phentolamine, phentolamine, reference compound] ?
A. 8.05

Q. Again, but for `Cl.NC(=O)c1ccccc1OCCCCCN1CCN(c2cccc(Cl)c2)CC1`
A. 8.33

Q. Please give the result for `COc1ccccc1N1CCN(CCCCOc2ccccc2C(N)=O)CC1.Cl` too.
A. 7.85

Q. What do you have for `Cl.NC(=O)c1ccccc1OCCCCCCN1CCN(c2cccc(Cl)c2)CC1` ?
A. 8.11

Q. Note, next up: `COc1ccccc1N1CCN(Cc2ccc(COc3ccccc3C(N)=O)cc2)CC1.Cl`
A. 7.41

* * *

- Test system: normotensive rats
- test.details: Influence on blood pressure in the normotensive rats
- Assay type: in vivo, rat
- setup.conditions: 2.5 mg/kg iv, 0 min (before administration); mean ± SD
recorded.metric: DBP—diastolic blood pressure

Q. Reported DBP—diastolic blood pressure, compound Cl.NC(=O)c1ccccc1OCCCCCCN1CCN(c2cccc(Cl)c2)CC1 [JJGW03] : ____
A. 89.3 ± 15.6 mmHg

Q. Now try Cl.NC(=O)c1ccccc1OCCCCCN1CCN(c2cccc(Cl)c2)CC1 [JJGW02] .
A. 84.8 ± 12.1 mmHg

Q. Okay, and COc1ccccc1N1CCN(Cc2cccc(COc3ccccc3C(N)=O)c2)CC1.Cl [JJGW11] ?
A. 88.7 ± 10.4 mmHg

Q. Now this one: COc1ccccc1N1CCN(Cc2ccc(COc3ccccc3C(N)=O)cc2)CC1.Cl [JJGW12]
A. 95.0 ± 16.0 mmHg

* * *

- Tested on: normotensive rats
- test.details: Influence on blood pressure in the normotensive rats
- Format: in vivo, rat
- setup.conditions: 2.5 mg/kg iv, 40 min; mean ± SD
Please respond with reported SBP—systolic blood pressure for every item in the list.
Use mmHg as the unit, but write only the number.

Q. What value of measured SBP—systolic blood pressure is listed for `Cl.NC(=O)c1ccccc1OCCCCCCN1CCN(c2cccc(Cl)c2)CC1` ?
A. 111.2

Q. Note, next up: `COc1ccccc1N1CCN(Cc2ccc(COc3ccccc3C(N)=O)cc2)CC1.Cl`
A. 108.8

Q. Next record, please: `Cl.NC(=O)c1ccccc1OCCCCCN1CCN(c2cccc(Cl)c2)CC1`
A. 106.5
